- system-under-test: human GPR119 (Homo sapiens, UniProt Q8TDV5)
- Sequence (Q8TDV5 1-308 limits assumed): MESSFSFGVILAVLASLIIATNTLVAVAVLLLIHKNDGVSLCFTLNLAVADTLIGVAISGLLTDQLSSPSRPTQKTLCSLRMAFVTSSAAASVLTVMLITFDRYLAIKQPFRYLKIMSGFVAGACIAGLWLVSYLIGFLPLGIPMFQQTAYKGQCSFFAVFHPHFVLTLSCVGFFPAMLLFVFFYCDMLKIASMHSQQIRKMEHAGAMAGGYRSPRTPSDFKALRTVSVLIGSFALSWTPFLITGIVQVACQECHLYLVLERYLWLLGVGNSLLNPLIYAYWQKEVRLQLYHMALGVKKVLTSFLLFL
- measurement-notes: Measurement of GPR119 signaling by cAMP (LANCE cAMP kit or HTRF) in HEK293 cells transfected with human GPR119
- conditions-used: agonist cAMP response in HEK293 cells stably transfected with human GPR119; patent does not say which of the two cAMP formats (LANCE or HTRF)
pEC50: −log10 of the molar value.
Returns true (1) if the recorded pEC50 is greater than or equal to 9, and false (0) otherwise.

Task: Dear colleague, could you confirm whether `CN(CC1CCOCC1)C(=O)Cc1ccc(OCC[C@@H]2C[C@@H]2C2CCN(c3ncc(Cl)cn3)CC2)cc1F` has pEC50 at or above 9?
Output: false (0)

Task: Dear colleague, could you confirm whether `COCc1cnc(N2CCC([C@H]3C[C@H]3CCOc3cc(F)c(CC(=O)N4CC(F)C4)c(F)c3)CC2)nc1` has pEC50 at or above 9?
Output: true (1)

Task: Dear colleague, could you confirm whether `Fc1cc(OCC[C@@H]2C[C@@H]2C2CCN(c3ncc(Cl)cn3)CC2)ccc1Cc1nnco1` has pEC50 at or above 9?
Output: false (0)

Task: Dear colleague, could you confirm whether `COCc1cnc(N2CCC([C@H]3C[C@H]3CCOc3ccc(CC(=O)N4CCc5nn[nH]c5C4)c(F)c3)CC2)nc1` has pEC50 at or above 9?
Output: false (0)

Task: Dear colleague, could you confirm whether CN(CC1CCCCO1)C(=O)Cc1ccc(OCC[C@@H]2C[C@@H]2C2CCN(c3ncc(Cl)cn3)CC2)cc1F (some centres unmarked) has pEC50 at or above 9?
Output: false (0)

Task: Dear colleague, could you confirm whether `COCc1cnc(N2CCC([C@H]3C[C@H]3CCOc3cc(F)c(CC(=O)N4CCCC4)c(F)c3)CC2)nc1` has pEC50 at or above 9?
Output: true (1)

Task: Dear colleague, could you confirm whether CC1(O)CCN(C(=O)Cc2ccc(OCC[C@@H]3C[C@@H]3C3CCN(c4ncc(Cl)cn4)CC3)cc2F)C1 (some centres unmarked) has pEC50 at or above 9?
Output: false (0)

Task: Dear colleague, could you confirm whether CCC(CO)NC(=O)Cc1ccc(OCC[C@@H]2C[C@@H]2C2CCN(c3ncc(Cl)cn3)CC2)cc1F (some centres unmarked) has pEC50 at or above 9?
Output: false (0)

Task: Dear colleague, could you confirm whether `CNC(=O)Cc1c(F)cc(OCC[C@@H]2C[C@@H]2C2CCN(c3ncc(COC)cn3)CC2)cc1F` has pEC50 at or above 9?
Output: false (0)

Task: Dear colleague, could you confirm whether `Cc1nnc(Cc2ccc(OCC[C@@H]3C[C@@H]3C3CCN(c4ncc(Cl)cn4)CC3)cc2F)o1` has pEC50 at or above 9?
Output: false (0)

Task: Dear colleague, could you confirm whether COC(=O)C1CN1C(=O)Cc1ccc(OCC[C@@H]2C[C@@H]2C2CCN(c3ncc(Cl)cn3)CC2)cc1F (some centres unmarked) has pEC50 at or above 9?
Output: false (0)

Task: Dear colleague, could you confirm whether `CN(CCC1CCOCC1)C(=O)Cc1ccc(OCC[C@@H]2C[C@@H]2C2CCN(c3ncc(Cl)cn3)CC2)cc1F` has pEC50 at or above 9?
Output: false (0)
